- assayName: NCI Yeast Anticancer Drug Screen. Data for the mlh1 rad18 strain (AID 175)
- particulars: S. cerevisiae mlh1 rad18 strain growth inhibition; at 50.0 µM; active compounds read high
This is part of a sample that, as a whole, favours compounds with a hit. Of some 79,000 tested, about 15% had one in any assay.
endpointLabel: growth inhibition (%)
Note: unit % is implicit; provide only the numeric part.

INPUT: Which value of growth inhibition has been reported for O=C(c1nc2ccccc2[nH]c1=O)C(O)c1ccccc1 (stereo not drawn) in the records?
OUTPUT: -2.2

More entries:
INPUT: Which value of growth inhibition has been reported for CC(=O)OCC1OC(SC2=NC(=O)/C(=C/c3ccccc3)S2)C(OC(C)=O)C(OC(C)=O)C1OC(C)=O (stereo not drawn) in the records?
OUTPUT: 43.8

INPUT: Which value of growth inhibition has been reported for `Cc1c(-c2ccccc2)[nH]c2cc(Cl)ccc2c1=O` in the records?
OUTPUT: -10.3

INPUT: Which value of growth inhibition has been reported for `CCCCN=CC(Cl)(Cl)C(=O)OCC` in the records?
OUTPUT: -19.7

INPUT: Which value of growth inhibition has been reported for `C(/C=N/NC1=NCCCN1)=N\NC1=NCCCN1` in the records?
OUTPUT: -14.2

INPUT: Which value of growth inhibition has been reported for `NCCCCCCCCCCC(=O)O` in the records?
OUTPUT: -2.8

INPUT: Which value of growth inhibition has been reported for `CCCCSCCC(=O)O` in the records?
OUTPUT: 5.85

INPUT: Which value of growth inhibition has been reported for Nc1ccc(C(=O)NN2C(=O)C(Cl)C2c2cc(Br)ccc2O)cc1 (stereo not drawn) in the records?
OUTPUT: 10.8

----------
- assayName: NCI Yeast Anticancer Drug Screen. Data for the mec2-1 strain (AID 157)
- particulars: S. cerevisiae mec2-1 strain, at 50.0 µM
This is part of a sample that, as a whole, favours compounds with a hit. Of some 79,000 tested, about 15% had one in any assay. Active and inactive are the calls of the source. Cut-off read from the data, not from the text of the source: active = growth inhibition above about 70%; inactive = the rest.
Allowed answers: 1 for active, -1 for inactive

Solved cases (5 shown):
INPUT: Give the logged outcome of this assay for the following molecule: `N#CC/C(C#N)=C/OC(=O)c1ccc(Cl)cc1`
OUTPUT: -1

INPUT: Give the logged outcome of this assay for the following molecule: `O=C(O)c1csc(C(=O)O)c1`
OUTPUT: -1

INPUT: Give the logged outcome of this assay for the following molecule: `NNC(=O)CSc1ncnc2nc[nH]c12`
OUTPUT: -1

INPUT: Give the logged outcome of this assay for the following molecule: COc1cc(C(C)c2cc3c(cc2OCCNC(=O)COc2cc4c(cc2C(C)c2cc(OC)c(OC)c(OC)c2)OCO4)OCO3)cc(OC)c1OC (configuration not stated)
OUTPUT: -1

INPUT: Give the logged outcome of this assay for the following molecule: CC(Cl)(CCC(Cl)C(C)(C)Cl)C(=O)CBr (configuration not stated)
OUTPUT: 1

Below: the item to evaluate.
INPUT: Give the logged outcome of this assay for the following molecule: OC1OC(CCl)C(Cl)C(O)C1O (configuration not stated)
OUTPUT: -1

----------
- assayName: NCI Yeast Anticancer Drug Screen. Data for the sgs1 mgt1 strain (AID 161);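 further: 0% = growth of cultures given vehicle only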
- particulars: S. cerevisiae sgs1 mgt1 strain, at 50.0 µM, active compounds read high
About 79,000 compounds went through this panel and 15% of them were active in at least one assay; those are over-represented in the sample as a whole.
A collection of compounds and their measured growth inhibition
Note: unit % is implicit; provide only the numeric part.

INPUT: Which value of growth inhibition has been reported for `O=S(=O)(O)c1ccc(-c2nc3ccccc3[nH]2)cc1` in the records?
OUTPUT: 4.65

INPUT: Which value of growth inhibition has been reported for `COc1ccc(N)cc1CO` in the records?
OUTPUT: -15.3

INPUT: Which value of growth inhibition has been reported for `CCOCCN1CCN(CCOCC)CC1` in the records?
OUTPUT: -9.65

INPUT: Which value of growth inhibition has been reported for N/N=C1/C(=O)N(c2ccc(S(N)(=O)=O)cc2)C(=O)C1C(=O)Nc1ccc(S(N)(=O)=O)cc1 (stereo unspecified) in the records?
OUTPUT: -0.9

INPUT: Which value of growth inhibition has been reported for CCc1cccc(C(C)CC)c1N=C(NC(=O)c1ccccc1C(=O)NC(=Nc1c(CC)cccc1C(C)CC)SC)SC (stereo unspecified) in the records?
OUTPUT: 5.3

// below: growth inhibition requested for another compound
INPUT: Which value of growth inhibition has been reported for `CCOC(=O)C(=O)Nc1c(N(CC)CC)n2ccccc2nc1=O` in the records?
OUTPUT: -4.15
